Hello, the source for this data is patent US6506775B1, in case you need it.

Endpoint name: melting point

Field: example entries. Status: answers known.
[[record]]
test_smiles = "Cl.Cl.FC(F)(F)c1ccc(Oc2ccccc2)c(CN[C@H]2CCCN[C@H]2c2ccccc2)c1"
experimental_result = "190 to 197 °C"

[[record]]
test_smiles = "COc1ccc(C(C)(C)C#CC(F)(F)F)cc1CN[C@H]1CCCN[C@H]1c1ccccc1.Cl.Cl"
experimental_result = "225 to 227 °C"

[[record]]
test_smiles = "COc1ccc(C(F)(C(F)(F)F)C(F)(F)F)cc1CN[C@H]1CCCN[C@H]1c1ccccc1.Cl.Cl"
experimental_result = "265 to 270 °C"

[[record]]
test_smiles = "Cl.Cl.Fc1ccc(C(F)(F)F)cc1CN[C@H]1CCCN[C@H]1c1ccccc1"
experimental_result = "195 to 203 °C"

[[record]]
test_smiles = "COc1ccc(C(C(F)(F)F)C(F)(F)F)cc1CN[C@H]1CCCN[C@H]1c1ccccc1.Cl.Cl"
experimental_result = "290 to 294 °C"

[[record]]
test_smiles = "COc1ccc(C(F)(F)F)cc1CN[C@H]1CCCN[C@H]1c1ccccc1.Cl.Cl"
experimental_result = "228 to 233 °C"


--- query ---
The compound CC(F)(F)c1ccc(OC(F)(F)F)c(CN[C@H]2CCCN[C@H]2c2ccccc2)c1.Cl.Cl showed melting point equal to 172 to 174 °C
